Target: human mAChR M4 (Homo sapiens, UniProt P08173)
Construct: expressed in transfected cells
Sequence (P08173 1-479): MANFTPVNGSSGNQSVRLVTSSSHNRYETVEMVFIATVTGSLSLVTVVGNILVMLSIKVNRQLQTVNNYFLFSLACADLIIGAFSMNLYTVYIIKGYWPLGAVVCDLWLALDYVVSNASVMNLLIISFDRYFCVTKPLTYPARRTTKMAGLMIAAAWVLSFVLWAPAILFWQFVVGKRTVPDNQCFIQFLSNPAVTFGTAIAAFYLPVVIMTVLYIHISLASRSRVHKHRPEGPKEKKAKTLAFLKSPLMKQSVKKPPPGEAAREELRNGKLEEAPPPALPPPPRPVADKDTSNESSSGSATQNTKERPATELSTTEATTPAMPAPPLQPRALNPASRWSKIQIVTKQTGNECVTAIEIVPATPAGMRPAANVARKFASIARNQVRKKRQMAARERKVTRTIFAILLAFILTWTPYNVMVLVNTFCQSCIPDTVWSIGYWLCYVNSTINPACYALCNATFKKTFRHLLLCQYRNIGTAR
Test: mAChR M4 cell-based functional assay (calcium mobilization, CHO-K1 hM4-Gqi5 cells)
Conditions: positive allosteric modulator activity, increase in the EC20 acetylcholine response, CHO-K1 hM4-Gqi5 cells; read-out: Human M4 EC50
observation-type: EC50 (nM)

Before answering, review these 2 worked examples.
{"columns": ["smiles-code", "target-system", "EC50, nM"],
 "data": [
  ["Cc1nc(C)c(C)c(N2CCc3ncc(-c4cn(C)nc4C)cc3C2)n1", "human mAChR M4 (Homo sapiens, UniProt P08173)", 176],
  ["Cc1cc(C(=O)NCc2cncs2)cnc1N1CCc2ncc(Nc3ccnn3C)cc2C1", "human mAChR M4 (Homo sapiens, UniProt P08173)", 84]
]}

A = Cc1cc2c(nc1N1CCc3ncc(C(F)(F)F)cc3C1)OCCN(Cc1ccccc1)C2=O
B = Cc1cc(C#N)cnc1N1CCc2ncc(-c3cccc(F)n3)cc2C1
Q) Of A and B , which carries the smaller reported EC50 figure? Which one? Tell me its label.
A) A
(A: 292 nM, B: 420 nM)

###

Target: human mAChR M4 (Homo sapiens, UniProt P08173)
Construct: expressed in transfected cells
Sequence (P08173 1-479): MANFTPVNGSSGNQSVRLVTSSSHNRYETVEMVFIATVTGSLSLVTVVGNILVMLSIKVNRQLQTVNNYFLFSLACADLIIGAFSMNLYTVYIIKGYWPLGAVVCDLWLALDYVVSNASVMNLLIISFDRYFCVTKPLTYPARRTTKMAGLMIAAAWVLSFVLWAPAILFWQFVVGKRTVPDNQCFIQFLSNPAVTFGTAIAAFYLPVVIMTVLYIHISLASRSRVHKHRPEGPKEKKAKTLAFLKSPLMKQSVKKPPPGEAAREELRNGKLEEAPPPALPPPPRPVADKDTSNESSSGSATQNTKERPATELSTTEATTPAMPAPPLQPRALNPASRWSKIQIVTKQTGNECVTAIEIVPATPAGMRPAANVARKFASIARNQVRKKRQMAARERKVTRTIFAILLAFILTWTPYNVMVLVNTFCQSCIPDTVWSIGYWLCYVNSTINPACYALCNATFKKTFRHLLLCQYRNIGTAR
Assay: mAChR M4 cell-based functional assay (calcium mobilization, CHO-K1 hM4-Gqi5 cells)
Conditions: positive allosteric modulator activity, increase in the EC20 acetylcholine response, CHO-K1 hM4-Gqi5 cells; read-out: Human M4 EC50
observation-type: EC50 (nM)

A selection of reference data follows.
{"columns": ["molecule", "EC50 / nM"],
 "data": [
  ["Cc1cc(C#N)nnc1N1CCc2ncc(N3CCCn4nc(C(F)(F)F)cc43)cc2C1", 257],
  ["[2H]C1([2H])Cc2ncc(Nc3ccccc3F)cc2C([2H])([2H])N1c1nnc(C#N)cc1C", 8],
  ["Cc1cc(F)ncc1-c1cnc2c(c1)CN(c1ncc(C#N)cc1C)CC2", 69],
  ["Cc1cc(C(=O)NCc2ccncc2)cnc1N1CCc2ncc(-c3cn(C)nc3C)cc2C1", 468],
  ["Cc1cc(C#N)cnc1N1CCc2ncc(CC(F)(F)F)cc2C1", 229]
]}

a = Cc1nc(C)c(C)c(N2CCc3ncc(Oc4ccc(F)cc4F)cc3C2)n1
b = Cc1cc(C(=O)NCc2nc3ccccc3s2)cnc1N1CCc2ncc(-c3cn(C)nc3C)cc2C1
Q) Param metric = EC50; output whichever of a , b has the minimum value. Refer to your chosen entry by its label in the reply.
A) a
(a: 275 nM, b: 828 nM)

###

target: human mAChR M4 (Homo sapiens, UniProt P08173); construct: expressed in transfected cells; assay: mAChR M4 cell-based functional assay (calcium mobilization, CHO-K1 hM4-Gqi5 cells); details: positive allosteric modulator activity, increase in the EC20 acetylcholine response, CHO-K1 hM4-Gqi5 cells; read-out: Human M4 EC50
pEC50: −log10 of the molar value.
observation-type: pEC50

Some molecules with recorded pEC50:
{"columns": ["smiles-code", "result-value"],
 "data": [
  ["Cc1cc(C#N)cnc1N1CCc2ncc(-c3cnn(C4CCCC4)c3)cc2C1", 6.39],
  ["[2H]C1([2H])Cc2ncc(Nc3ccncc3F)cc2C([2H])([2H])N1c1nnc(C#N)cc1C", 8.00],
  ["Cc1nc(Cl)c(C)c(N2CCc3ncc(Nc4ccnn4C)cc3C2)n1", 7.19],
  ["CCCn1cc(-c2cnc3c(c2)CN(c2ncc(C#N)cc2C)CC3)cn1", 6.48]
]}

I = Cc1nc(C)c(C)c(N2CCc3ncc(N4CCCn5nccc54)cc3C2)n1
II = Cc1nc2c(c(N3CCc4ncc(C(F)(F)F)cc4C3)n1)CCCC2
III = Cc1cc(C(=O)N(C)C)nnc1N1CCc2ncc(N3CCCn4nccc43)cc2C1
IV = Cc1cc(Nc2cnc3c(c2)CN(c2nnc(C#N)cc2C)CC3)c(F)cn1
V = Cc1cc(C#N)cnc1N1CCc2ncc(-c3ccc(F)nc3)cc2C1
Q) Arrange the 5 molecules from largest to smallest pEC50. Provide the ranking by listing each label in its place in the requested order.
A) IV, I, V, III, II

a = FC(F)(F)c1cnc2c(c1)CN(c1nc(Cl)nc3c1COC3)CC2
b = Cc1cc(C(=O)N2CC(CO)C2)nnc1N1CCc2ncc(N3CCCn4nccc43)cc2C1
Q) Pick the one with the larger pEC50: a vs b Identify your selection by its label.
A) b

1 = Cc1cc(C(=O)NC2(c3cccnc3)CC2)nnc1N1CCc2ncc(CC(F)(F)F)cc2C1
2 = Cc1c(C(=O)Nc2ccncc2)nnc(N2CCc3ncc(C(F)(F)F)cc3C2)c1C
Q) Just tell me: smaller pEC50 value, 1 or 2 ? // output: label of the selected item
A) 1

###

target: human mAChR M4 (Homo sapiens); construct: expressed in transfected cells; test: mAChR M4 cell-based functional assay (calcium mobilization, CHO-K1 hM4-Gqi5 cells); settings: positive allosteric modulator activity, increase in the EC20 acetylcholine response, CHO-K1 hM4-Gqi5 cells; read-out: Human M4 EC50
pEC50: −log10 of the molar value.
observation-type: pEC50

{"columns": ["molecule", "target-system", "result-value"],
 "data": [
  ["Cc1c(C#N)nnc(N2CCc3ncc(Nc4ncc(F)cc4F)cc3C2)c1C [compound 78]", "human mAChR M4 (Homo sapiens)", 6.49]
]}

a = Cc1ccc(-c2cnc3c(c2)CN(c2nnc(C#N)cc2C)CC3)cn1 [Example 392]
b = Cc1cc(F)c(F)cc1-c1cnc2c(c1)CN(c1nnc(C#N)cc1C)CC2 [Example 596]
c = Cc1nc(C)c(C)c(N2CCc3ncc(Oc4cc(F)ccc4F)cc3C2)n1 [compound 263]
Q) hey, can you rank those molecules up there by pEC50? biggest number first please Arrange the labels as the request states and list them.
A) c, a, b

a = Cc1nc(Cl)c(C)c(N2CCc3ncc(Oc4cccc(F)c4)cc3C2)n1 [compound 203]
b = COc1cc(-c2cnc3c(c2)CN(c2ncc(C#N)cc2C)CC3)ccn1 [Example 338]
c = Cc1cc(C(=O)N2CC(C)(O)C2)nnc1N1CCc2ncc(N3CCCn4nccc43)cc2C1 [Example 547]
Q) Kindly order the items shown according to pEC50, from the highest value down. Please list the labels according to the requested order.
A) c, b, a
(c: 7.40, b: 6.50, a: 6.19)

1 = Cc1cc(-c2cnc3c(c2)CN(c2nc(C)nc(Cl)c2C)CC3)ccn1 [compound 93]
2 = Cc1cc(Nc2cnc3c(c2)CN(c2ncc(C#N)cc2C)CC3)n(C(C)C)n1 [Example 316]
Q) Kindly compare 1 with 2 and tell me which has the lower pEC50 figure. Identify your selection by its label.
A) 2
(2: 6.16, 1: 6.91)
